TARGET OF ASSAY: estrogen receptor (Homo sapiens)
Construct: expressed in transfected cells; host or cells: HEK293 (Gibco 293-H), transient transfection with FuGENE HD
Sequence (P03372 whole entry, species assumed): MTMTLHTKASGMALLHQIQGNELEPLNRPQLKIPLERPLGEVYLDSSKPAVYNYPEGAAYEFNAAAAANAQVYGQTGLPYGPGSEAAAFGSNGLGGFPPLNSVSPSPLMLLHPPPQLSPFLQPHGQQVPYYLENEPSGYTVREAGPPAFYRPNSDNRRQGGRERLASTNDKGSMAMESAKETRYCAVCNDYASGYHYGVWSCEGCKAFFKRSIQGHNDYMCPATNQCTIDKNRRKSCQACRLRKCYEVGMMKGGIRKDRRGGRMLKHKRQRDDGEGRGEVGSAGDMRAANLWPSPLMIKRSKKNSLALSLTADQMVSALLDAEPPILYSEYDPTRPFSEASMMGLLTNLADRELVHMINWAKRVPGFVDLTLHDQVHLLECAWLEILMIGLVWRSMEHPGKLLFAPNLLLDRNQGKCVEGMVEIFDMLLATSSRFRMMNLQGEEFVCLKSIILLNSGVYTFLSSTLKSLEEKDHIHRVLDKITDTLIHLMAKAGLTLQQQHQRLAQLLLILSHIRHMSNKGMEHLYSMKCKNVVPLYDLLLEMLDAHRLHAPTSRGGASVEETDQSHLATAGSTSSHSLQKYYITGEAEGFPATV
PROTOCOL NOTES: NanoBRET screening of ARCS (binding assay with washout) in transfected HEK293 cells
TEST CONDITIONS: HEK293 cells transfected with NanoLuc-target fusion, estrogen receptor
OBSERVED PROPERTY: Binding Potential (Percent inhibition)

Illustrative cases are given below, each with its answer.
• C=CC(=O)NCCOc1ccc(C2c3[nH]c4ccccc4c3CC(C)N2CC(C)(C)F)cn1 (stereo not shown) [Compound 2-316] = ++++ (++++ >90%)
• C=CC(=O)NCCc1ccc(C2c3[nH]c4ccccc4c3CC(C)N2CC(C)(C)F)cn1 (stereo not shown) [Compound 2-305] = ++++ (++++ >90%)
• CC1Cc2c([nH]c3ccccc23)C(c2ccc(NCCNCC=CC(=O)N(C)C)nc2)N1CC(C)(C)F (stereo not shown) [Compound 2-107] = +++ (+++ 80-90%)
• CC1Cc2c([nH]c3ccccc23)C(c2c(F)cc(C=CCNCC=CC(=O)N(C)C)nc2F)N1CC(C)(C)F (stereo not shown) [Compound 2-304] = ++++ (++++ >90%)
• CC1Cc2c([nH]c3ccccc23)C(c2c(F)cc(OCCNCC=CC(=O)N(C)C)nc2F)N1CC(C)(C)F (stereo not shown) [Compound 2-102] = +++ (+++ 80-90%)

Binding Potential (Percent inhibition) lookup needed for C#CCN(C)C(=O)C=CCNCCOc1cc(F)c(C2c3[nH]c4ccccc4c3CC(C)N2CC(C)(C)F)c(F)c1 (stereo not shown) [Compound 2-311] , thanks. ++++ (++++ >90%)

Follow-up item: CC1Cc2c([nH]c3ccccc23)C(c2ccc(N)cc2)N1CC(C)(C)F (stereo not shown) [Compound 2-312] ++++ (++++ >90%)

Follow-up item: CC1Cc2c([nH]c3ccccc23)C(c2c(F)cc(NCCNCC=CC(=O)N(C)C)cc2F)N1CC(C)(C)F (stereo not shown) [Compound 2-109] +++ (+++ 80-90%)

Follow-up item: CC#CC(=O)NCCc1cc(F)c(C2c3[nH]c4ccccc4c3CC(C)N2CC(C)(C)F)c(F)c1 (stereo not shown) [Compound 2-310] ++++ (++++ >90%)
